tested on: Proteus mirabilis; test: ≥ marks a high value that may be exact or a test limit, other limits are often not marked, values filed in µg/mL are converted to µM
readout: MIC

If you can, please state the reported MIC value of "CC(C)C[C@H](NC(=O)[C@H](Cc1ccccc1)NC(=O)CNC(=O)[C@H](CC(C)C)NC(=O)[C@@H](N)Cc1ccccc1)C(=O)N[C@@H](Cc1ccccc1)C(=O)N[C@@H](CCCCN)C(=O)N[C@H](C(=O)N[C@@H](C)C(=O)N[C@@H](CO)C(=O)N[C@@H](CCCCN)C(=O)O)C(C)C" .
≥ 159 µM

If you can, please state the reported MIC value of "CC(C)C[C@H](NC(=O)[C@H](Cc1c[nH]c2ccccc12)NC(=O)CNC(=O)[C@H](CC(C)C)NC(=O)[C@@H](N)Cc1ccccc1)C(=O)N[C@@H](Cc1ccccc1)C(=O)N[C@@H](CCCCN)C(=O)N[C@H](C(=O)N[C@@H](C)C(=O)N[C@@H](CO)C(=O)N[C@@H](CCCCN)C(=O)O)C(C)C" .
≥ 154 µM

If you can, please state the reported MIC value of "CC(C)C[C@H](NC(=O)[C@@H](NC(=O)[C@H](CCCCN)NC(=O)[C@H](CO)NC(=O)[C@H](C)NC(=O)[C@@H](NC(=O)[C@H](CCCCN)NC(=O)[C@H](Cc1ccccc1)NC(=O)[C@@H](N)CC(C)C)C(C)C)C(C)C)C(=O)N1CCC[C@H]1C(=O)N[C@@H](CO)C(=O)N[C@H](C(=O)N[C@@H](CCCCN)C(=O)O)C(C)C" .
≥ 141 µM

If you can, please state the reported MIC value of "NC(N)=NCCC[C@H](NC(=O)[C@H](CCCN=C(N)N)NC(=O)[C@H](CCCN=C(N)N)NC(=O)[C@H](CCCN=C(N)N)NC(=O)[C@H](Cc1c[nH]c2ccccc12)NC(=O)[C@H](Cc1c[nH]c2ccccc12)NC(=O)[C@H](Cc1c[nH]c2ccccc12)NC(=O)[C@H](Cc1c[nH]c2ccccc12)NC(=O)[C@H](CCCN=C(N)N)NC(=O)[C@H](CCCN=C(N)N)NC(=O)[C@H](CCCN=C(N)N)NC(=O)[C@@H](N)CCCN=C(N)N)C(=O)O" .
31.8 µM

If you can, please state the reported MIC value of "CC[C@H](C)[C@H](NC(=O)CNC(=O)[C@H](CCCCN)NC(=O)[C@H](CC(C)C)NC(=O)[C@H](CC(N)=O)NC(=O)[C@@H](N)CC(C)C)C(=O)N[C@@H](Cc1ccccc1)C(=O)N[C@@H](CCCCN)C(=O)N[C@@H](CCCCN)C(=O)N[C@H](C(=O)N[C@@H](C)C(=O)N[C@@H](CO)C(=O)N[C@@H](CC(C)C)C(=O)N[C@@H](CC(C)C)C(=O)N[C@H](C(=O)O)[C@@H](C)O)C(C)C" .
≥ 60 µM

If you can, please state the reported MIC value of "CC(C)C[C@H](NC(=O)[C@H](C)NC(=O)CNC(=O)[C@H](CC(C)C)NC(=O)[C@@H](N)Cc1ccccc1)C(=O)N[C@@H](Cc1ccccc1)C(=O)N[C@@H](CCCCN)C(=O)N[C@@H](CC(C)C)C(=O)N[C@@H](C)C(=O)N[C@@H](CO)C(=O)N[C@@H](CCCCN)C(=O)O" .
≥ 167 µM

If you can, please state the reported MIC value of "NC(N)=NCCC[C@H](NC(=O)[C@H](CCCN=C(N)N)NC(=O)[C@H](CCCN=C(N)N)NC(=O)[C@H](CCCN=C(N)N)NC(=O)[C@H](CCCN=C(N)N)NC(=O)[C@H](CCCN=C(N)N)NC(=O)[C@H](CCCN=C(N)N)NC(=O)[C@H](CCCN=C(N)N)NC(=O)[C@@H](N)Cc1c[nH]c2ccccc12)C(=O)O" .
≥ 44 µM
